Assay: in vitro
Settings: human
reported endpoint: CC50 at 48 h (µM)
Unit µM implied. Number only.

Note CC50 at 48 h for the molecule shown: CCCCCCOC(=O)[C@H](CCC(=O)NCCC1CCN(Cc2ccccc2)CC1)NC(=O)c1coc(C)n1
43

----------
Assay: in vitro
Details: human
reported endpoint: CC50 at 48 h

Note CC50 at 48 h for the molecule shown: CCCCCCOC(=O)[C@H](CCC(=O)NCCC1CCN(Cc2ccccc2)CC1)NC(=O)c1coc(C)n1
> 50 µM

----------
Assay: in vitro
Conditions: African green monkey
reported endpoint: CC50

Note CC50 for the compound shown: CCOC(=O)[C@H](CCC(=O)NCCC1CCN(Cc2ccccc2)CC1)NC(=O)OCc1ccccc1
50 µM

Note CC50 for the compound shown: CCCCCCOC(=O)[C@H](CCC(=O)NCCC1CCN(Cc2ccccc2)CC1)NC(=O)OCc1ccccc1
> 50 µM

Note CC50 for the compound shown: CCCCCCOC(=O)[C@H](CCC(=O)NCCC1CCN(Cc2ccccc2)CC1)NC(=O)c1coc(C)n1
> 50 µM
